- TEST: in vivo
- PARTICULARS: both, beagle, dog, in vivo, po, 60 mg/kg, median Tmax
VALUE KIND: Tmax

Endpoint output: Tmax of Cn1c(=O)n([C@@H]2CCC(=O)NC2=O)c2cccc(C#CCOC3CCN(C[C@H]4CC[C@H](n5cc(NC(=O)c6cnn7ccc(N8C[C@H]9C[C@@H]8CO9)nc67)c(C(F)F)n5)CC4)CC3)c21 [Compound C] . Value? 4 h

###

- TEST: in vivo
- PARTICULARS: both, beagle, dog, in vivo, po, median Tmax
VALUE KIND: Tmax

Illustrative cases are given below, each with its answer.
[[record]]
molecule = "Cn1c(=O)n([C@@H]2CCC(=O)NC2=O)c2cccc(C#CCOC3CCN(C[C@H]4CC[C@H](n5cc(NC(=O)c6cnn7ccc(N8C[C@H]9C[C@@H]8CO9)nc67)c(C(F)F)n5)CC4)CC3)c21"
recorded_value = "6 h"

[[record]]
molecule = "Cn1c(=O)n([C@H]2CCC(=O)NC2=O)c2cccc(C#CCOC3CCN(C[C@H]4CC[C@H](n5cc(NC(=O)c6cnn7ccc(N8C[C@H]9C[C@@H]8CO9)nc67)c(C(F)F)n5)CC4)CC3)c21"
recorded_value = "6 to 9 h"


Kindly review the next molecule as well.
Endpoint output: Tmax of Cn1c(=O)n(C2CCC(=O)NC2=O)c2cccc(C#CCOC3CCN(C[C@H]4CC[C@H](n5cc(NC(=O)c6cnn7ccc(N8C[C@H]9C[C@@H]8CO9)nc67)c(C(F)F)n5)CC4)CC3)c21 (stereo partly drawn) . Value? 5 to 9 h

###

- TEST: 4-week oral gavage toxicokinetic study with Compound A in dogs (plasma)
- PARTICULARS: both, beagle, dog, plasma, po, mean half-life (t1/2), dog plasma; Day 1; range across groups
VALUE KIND: half-life

Endpoint output: half-life of Cn1c(=O)n(C2CCC(=O)NC2=O)c2cccc(C#CCOC3CCN(C[C@H]4CC[C@H](n5cc(NC(=O)c6cnn7ccc(N8C[C@H]9C[C@@H]8CO9)nc67)c(C(F)F)n5)CC4)CC3)c21 (stereo partly shown) . Value? 6.54 to 7.6 h

###

- TEST: in vivo
- PARTICULARS: both, beagle, dog, in vivo, po, 60 mg/kg, Tmax
VALUE KIND: Tmax (h)
Report as a plain number; the unit h is understood.

Illustrative cases are given below, each with its answer.
[[record]]
compound = "Cn1c(=O)n([C@H]2CCC(=O)NC2=O)c2cccc(C#CCOC3CCN(C[C@H]4CC[C@H](n5cc(NC(=O)c6cnn7ccc(N8C[C@H]9C[C@@H]8CO9)nc67)c(C(F)F)n5)CC4)CC3)c21 [Compound B]"
value_unit = "h"
recorded_value = 4

[[record]]
compound = "Cn1c(=O)n([C@@H]2CCC(=O)NC2=O)c2cccc(C#CCOC3CCN(C[C@H]4CC[C@H](n5cc(NC(=O)c6cnn7ccc(N8C[C@H]9C[C@@H]8CO9)nc67)c(C(F)F)n5)CC4)CC3)c21 [Compound C]"
value_unit = "h"
recorded_value = 4


Kindly review the next compound as well.
Endpoint output: Tmax of Cn1c(=O)n(C2CCC(=O)NC2=O)c2cccc(C#CCOC3CCN(C[C@H]4CC[C@H](n5cc(NC(=O)c6cnn7ccc(N8C[C@H]9C[C@@H]8CO9)nc67)c(C(F)F)n5)CC4)CC3)c21 (stereo partly drawn) [Compound A] . Value? 6

###

- TEST: in vivo
- PARTICULARS: both, beagle, dog, in vivo, po, 200 mg/kg, Tmax
Listing of entries alongside the reported Tmax.
Report as a plain number; the unit h is understood.

[[record]]
compound = "Cn1c(=O)n([C@@H]2CCC(=O)NC2=O)c2cccc(C#CCOC3CCN(C[C@H]4CC[C@H](n5cc(NC(=O)c6cnn7ccc(N8C[C@H]9C[C@@H]8CO9)nc67)c(C(F)F)n5)CC4)CC3)c21"
recorded_value = 4


Kindly review the next compound as well.
Endpoint output: Tmax of Cn1c(=O)n(C2CCC(=O)NC2=O)c2cccc(C#CCOC3CCN(C[C@H]4CC[C@H](n5cc(NC(=O)c6cnn7ccc(N8C[C@H]9C[C@@H]8CO9)nc67)c(C(F)F)n5)CC4)CC3)c21 (some centres unmarked) . Value? 12

###

Listing of entries alongside the reported Tmax.
- TEST: in vivo
- PARTICULARS: both, beagle, dog, in vivo, po, 60 mg/kg/day, median Tmax
Report as a plain number; the unit h is understood.

[[record]]
molecule = "Cn1c(=O)n(C2CCC(=O)NC2=O)c2cccc(C#CCOC3CCN(C[C@H]4CC[C@H](n5cc(NC(=O)c6cnn7ccc(N8C[C@H]9C[C@@H]8CO9)nc67)c(C(F)F)n5)CC4)CC3)c21 (some centres unmarked)"
recorded_value = 6


Kindly review the next molecule as well.
Endpoint output: Tmax of Cn1c(=O)n([C@H]2CCC(=O)NC2=O)c2cccc(C#CCOC3CCN(C[C@H]4CC[C@H](n5cc(NC(=O)c6cnn7ccc(N8C[C@H]9C[C@@H]8CO9)nc67)c(C(F)F)n5)CC4)CC3)c21 . Value? 4

###

- TEST: 4-week oral gavage toxicity study with Compound A in dogs with 2-week recovery
- Type: in vivo
- PARTICULARS: both sexes, beagle, dog, in vivo; dogs, oral gavage once daily, 4 weeks; read-out: no observed adverse effect level (NOAEL)
VALUE KIND: NOAEL at 4 weeks (mg/kg/day)
Report as a plain number; the unit mg/kg/day is understood.

Endpoint output: NOAEL at 4 weeks of Cn1c(=O)n(C2CCC(=O)NC2=O)c2cccc(C#CCOC3CCN(C[C@H]4CC[C@H](n5cc(NC(=O)c6cnn7ccc(N8C[C@H]9C[C@@H]8CO9)nc67)c(C(F)F)n5)CC4)CC3)c21 (stereo partly shown) [Compound A] . Value? 60

The values you see were collected from patent US12497402B2.
